- Test system: MS2 coat protein
- Assay notes: apparent KD of MS2 coat protein; designed switch direction (-1 OFF switch, 1 ON switch): 1; higher = weaker reporter binding
- Test conditions: Eterna round: R95; input ligand: microRNA oligo, concentration not stated
Assay endpoint: apparent KD of MS2 coat protein (nM)
Just the number in nM, nothing appended.

Residue sequence: UUAUAACAUGAGGAUCACCCAUGUCAACAAAGUCGAGGAUAUGGGCAAGAAGUGAGAGAACCAGAAGGCGAAUAUU [Mat - Same State 1 - Mod of UCT - D30] (puzzle: Same State 1)
Unit tag: nM
apparent KD of MS2 coat protein: 88.7
//
Residue sequence: CGUCCGGCCUGAGCUGGACGGUAGCAUGUACAUGAGGAUCACCCAUGUUCAUGUGCAGGCUUUUUGCUCGUCUUGUG [salish99_mir208a_modof_jandersonlee_003] (puzzle: Sensor for hsa-mir-208a)
Unit tag: nM
apparent KD of MS2 coat protein: 10.6

Q: Supply recorded apparent KD of MS2 coat protein for GGAGUCGGCACUGAGGAUAUUCAUAUUUAAACAUGAGGAUCACCCAUGUAGGCCAGAAGGCCUUGGGAGAAGGCAGGUCGGCUCG [salish99_ss2_r3_084] (puzzle: Same State 2) here.
A: 154
